The reported measurements were obtained from paper PMC4094919.

# System: P. falciparum NF54 strain
# EXPERIMENT DESCRIPTION: P. falciparum NF54 growth assay, 3H-hypoxanthine incorporation (hit validation)
# Format: cell-based, Plasmodium falciparum
# MEASUREMENT PARAMETERS: Plasmodium falciparum; negative logarithm of the molar EC50, NF54; read-out: pEC50 (NF54) (converted)
The entries below come with measured EC50 values attached.
Write the value in nM as a bare number.

Use these answered entries as a reference point.
{"columns": ["COMPOUND", "EC50 [nM]"],
 "data": [
  ["Cc1ccc(S(=O)(=O)N2CCN(Cc3ccc(C(=O)NC4CC4)cc3)CC2)cc1 [Compound 15c]", 501],
  ["O=C(c1cccc(-c2noc(CN(CCN3CCCCC3)C(=O)c3ccccc3)n2)c1)N1CCCNCC1", 63.1],
  ["Cc1ccc(S(=O)(=O)N2C[C@@H](C)N(Cc3ccc(C(=O)NC4CC4)cc3)C[C@H]2C)cc1 [Compound 15b]", 631],
  ["CC(C)(C)CC(=O)N(Cc1ccc(NC(=O)c2ccc(C#N)cc2)cc1)CC(C)(C)CN", 3160],
  ["Cc1csc(Sc2ncnc3sccc23)n1", 100]
]}

Give the measured EC50 for O=C(O)[C@@H]1Cc2c([nH]c3ccccc23)[C@@H](c2ccc(Cl)cc2Cl)N1 [Compound 14b]
158

Give the measured EC50 for `O=C(Nc1cccc(Cl)c1)N1CC2(CCN(Cc3ccccc3)CC2)c2ccccc21`
316

Give the measured EC50 for O=C(NCC(c1ccsc1)N1CCCCCC1)c1ccc(C(F)(F)F)cc1 (centres unmarked)
501
